- Test system: mAb 2D7
- protocol.summary: Peptide ELISA: mAb 2D7 binding to biotinylated peptides captured on streptavidin
- Set-up: species or system mouse
- protocol.conditions: biotinylated peptide captured by streptavidin
assay.endpoint: binding of mAb 2D7 to peptide in ELISA

mAb 2D7 data for Q-L-W-L-G-W-T-E-L-E-G-V-K-G-G-G-S-C (QLWLGWTELEGVKGGGSC) [2D7-2SK-SCR, reference compound] ; its binding of mAb 2D7 to peptide in ELISA: not
